Reported IC50 values follow for various compounds
# target or test system: Excitatory amino acid transporter 2 (Homo sapiens)
# assay info: Inhibition of human EAAT2 expressed in HEK293 cells assessed as inhibition of 3[H]-D-Aspartate uptake after 6 mins by scintillation counting method
assay endpoint: IC50

1) N#CC1=C(N)OC2=C(C(=O)CN(c3ccccc3)C2)C1c1ccccc1 (configuration not stated): > 100 µM
2) C[C@@H](c1ccccc1)N1CC(=O)C2=C(C1)OC(N)=C(C#N)[C@@H]2c1ccccc1: > 300 µM
3) N#CC1=C(N)OC2=C(C(=O)CN(C(=O)c3ccccc3)C2)C1c1ccccc1 (configuration not stated): > 100 µM
4) C[C@H](c1ccccc1)N1CC(=O)C2=C(C1)OC(N)=C(C#N)[C@@H]2c1ccccc1: > 300 µM
5) C[C@H](c1ccccc1)N1CC(=O)C2=C(C1)OC(N)=C(C#N)[C@H]2c1ccccc1: > 300 µM
6) C[C@@H](c1ccccc1)N1CC(=O)C2=C(C1)OC(N)=C(C#N)[C@H]2c1ccccc1: > 300 µM
7) N#CC1=C(N)OC2=C(C(=O)CN(Cc3ccccc3)C2)C1c1ccccc1 (configuration not stated): > 300 µM

###

# target or test system: Excitatory amino acid transporter 1 (Homo sapiens, UniProt P43003)
# Sequence (P43003 whole entry): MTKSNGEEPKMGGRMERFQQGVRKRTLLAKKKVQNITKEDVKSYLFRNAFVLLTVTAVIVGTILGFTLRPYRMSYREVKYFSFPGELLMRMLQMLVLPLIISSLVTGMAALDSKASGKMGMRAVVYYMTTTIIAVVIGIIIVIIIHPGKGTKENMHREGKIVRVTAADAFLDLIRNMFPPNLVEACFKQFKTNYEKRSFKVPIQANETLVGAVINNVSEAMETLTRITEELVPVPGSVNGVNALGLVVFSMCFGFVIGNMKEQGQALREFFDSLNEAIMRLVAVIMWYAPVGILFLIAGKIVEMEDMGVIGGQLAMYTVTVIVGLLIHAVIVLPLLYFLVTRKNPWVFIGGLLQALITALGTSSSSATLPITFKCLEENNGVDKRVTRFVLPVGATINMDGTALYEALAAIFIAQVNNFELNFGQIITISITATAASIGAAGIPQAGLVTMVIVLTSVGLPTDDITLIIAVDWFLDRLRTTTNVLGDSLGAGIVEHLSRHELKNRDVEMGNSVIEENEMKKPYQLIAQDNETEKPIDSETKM
# assay info: Inhibition of human EAAT1 expressed in HEK293 cells assessed as inhibition of 3[H]-D-Aspartate uptake after 6 mins by scintillation counting method
# Type: cell-based
# test context: read-out: pIC50 (converted)
Reported IC50 values follow for various compounds
assay endpoint: IC50 (µM)

1) C[C@@H](c1ccccc1)N1CC(=O)C2=C(C1)OC(N)=C(C#N)[C@H]2c1ccccc1: 5.25
2) N#CC1=C(N)OC2=C(C(=O)CN(Cc3ccccc3)C2)C1c1ccccc1 (configuration not stated): 16.2
3) C[C@H](c1ccccc1)N1CC(=O)C2=C(C1)OC(N)=C(C#N)[C@H]2c1ccccc1: 3.72

###

# target or test system: Excitatory amino acid transporter 1 (Homo sapiens, UniProt P43003)
# assay info: Inhibition of human EAAT1 expressed in HEK293 cells assessed as inhibition of 3[H]-D-Aspartate uptake after 6 mins by scintillation counting method
# Format: cell-based
# test context: read-out: pIC50 (converted)
Reported IC50 values follow for various compounds
assay endpoint: IC50

1. C[C@H](c1ccccc1)N1CC(=O)C2=C(C1)OC(N)=C(C#N)[C@@H]2c1ccccc1: > 316 µM
2. N#CC1=C(N)OC2=C(C(=O)CN(C(=O)c3ccccc3)C2)C1c1ccccc1 (centres undefined): > 100 µM
3. N#CC1=C(N)OC2=C(C(=O)CN(c3ccccc3)C2)C1c1ccccc1 (centres undefined): > 100 µM
4. C[C@@H](c1ccccc1)N1CC(=O)C2=C(C1)OC(N)=C(C#N)[C@@H]2c1ccccc1: > 316 µM
